# Tested on: Pseudomonas aeruginosa Pa058
# experiment: MIC determination, strain Pa058
# Assay type: cell-based
# particulars: read-out: MIC100
measured_endpoint: MIC

> print(dat)
                                   compound                  study.system  measured.endpoint  experimental.result
1          NCCS(=O)(=O)O [Taurine, taurine]  Pseudomonas aeruginosa Pa058                MIC         > 2000 µg/mL
2           NCCSSCCN [Cystamine, cystamine]  Pseudomonas aeruginosa Pa058                MIC           2000 µg/mL
3  O=C(O)C(S)C(S)C(=O)O (stereo not shown) [2,3-Dimercaptosuccinic Acid, 2,3-dimercaptosuccinic acid]  Pseudomonas aeruginosa Pa058                MIC           2000 µg/mL
4             NCCS [Cysteamine, cysteamine]  Pseudomonas aeruginosa Pa058                MIC           1000 µg/mL

* * *

# System: Pseudomonas aeruginosa NH57388A
# experiment: MIC determination, strain NH57388A
# Type: cell-based
In this section we review reported MIC50 values for a set of molecules.
measured_endpoint: MIC50

> print(dat)
                                  molecule  experimental.result
1  O=C(O)C(S)C(S)C(=O)O (stereo not shown)    500 to 2000 µg/mL
2                                     NCCS            250 µg/mL
3                            NCCS(=O)(=O)O         > 2000 µg/mL
4                                 NCCSSCCN    500 to 1000 µg/mL

* * *

# Tested on: Pseudomonas aeruginosa Pa058
# experiment: MIC determination, strain Pa058
# Assay type: cell-based
In this section we review reported MIC90 values for a set of compounds.
measured_endpoint: MIC90

> print(dat)
                                  compound  experimental.result
1  O=C(O)C(S)C(S)C(=O)O (stereo not shown)   1000 to 2000 µg/mL
2                                 NCCSSCCN   1000 to 2000 µg/mL
3                            NCCS(=O)(=O)O         > 2000 µg/mL
4                                     NCCS           1000 µg/mL

* * *

In this section we review reported MIC values for a set of molecules.
# System: Pseudomonas aeruginosa Pa14
# experiment: MIC determination, strain Pa14
# Assay type: cell-based
# particulars: read-out: MIC100
measured_endpoint: MIC (µg/mL)

> print(dat)
                                   molecule  measured.endpoint  unit.abbrev  censoring.qualifier  experimental.result
1             NCCS [Cysteamine, cysteamine]                MIC        µg/mL                    =                 1330
2  O=C(O)C(S)C(S)C(=O)O (stereo not shown) [2,3-Dimercaptosuccinic Acid, 2,3-dimercaptosuccinic acid]                MIC        µg/mL                    >                 2000
3          NCCS(=O)(=O)O [Taurine, taurine]                MIC        µg/mL                    >                 2000
4           NCCSSCCN [Cystamine, cystamine]                MIC        µg/mL                    =                 2000
